Hey, just so you know, these numbers are from ChEMBL document CHEMBL1759880.

For each record, write down the corresponding diameter of the inhibition zone (DIZ).
system: Candida albicans; experiment: Antifungal activity against Candida albicans after 3 to 4 days by disc diffusion method; type: functional; note: test concentration or dose not given here
Answers are plain numbers, in mm.

Look over these answered cases.
The reported diameter of the inhibition zone (DIZ) of the compound CCCCCC[C@@H](O)C/C=C\CCCCCCCC(=O)Nc1ccccc1O was 16.2

The recorded diameter of the inhibition zone (DIZ) for CCCCCCCCCCCCCCCCCC(=O)Nc1ccccc1O is 14.7

The recorded diameter of the inhibition zone (DIZ) for entry C=CCCCCCCCCC(=O)Nc1ccccc1O equals 12.5

The reported diameter of the inhibition zone (DIZ) of the compound CCCCCC[C@@H](O)C/C=C\CCCCCCCC(=O)N(C(=O)NC1CCCCC1)C1CCCCC1 was 18.3

Given item CCCCC/C=C\CC[C@H](O)CCCCCCCC(=O)Nc1ccccc1O , the value recorded as its diameter of the inhibition zone (DIZ) is 21.4

CCCCCCCCCCCCCCCCCC(=O)N(C(=O)NC1CCCCC1)C1CCCCC1 yielded diameter of the inhibition zone (DIZ) of 15.1

Briefly, diameter of the inhibition zone (DIZ) measured for COC1=CC(=O)C[C@@H](C)[C@]12Oc1c(Cl)c(OC)cc(OC)c1C2=O : 30

Lab book: diameter of the inhibition zone (DIZ) of CCCCCCCC/C=C\CCCCCCCC(=O)N(C(=O)NC1CCCCC1)C1CCCCC1 noted as 13.9

Form field diameter of the inhibition zone (DIZ), entry CCCCCCCCCCCCCCCC(=O)N(C(=O)NC1CCCCC1)C1CCCCC1 : 14.2

Continue with the next compound.
The recorded diameter of the inhibition zone (DIZ) for entry CCCCC/C=C\CC[C@H](O)CCCCCCCC(=O)N(C(=O)NC1CCCCC1)C1CCCCC1 equals 24.2

----------
Kindly state diameter of the inhibition zone (DIZ) for each of the entries shown.
tested on: Candida albicans; experiment: Antifungal activity against Candida albicans after 3 to 4 days by disc diffusion method; type: functional; note: test concentration or dose not given here
Answers are plain numbers, in mm.

Answered examples (2):
// recorded diameter of the inhibition zone (DIZ) for CCCCCCCC/C=C\CCCCCCCC(=O)Nc1ccccc1O : 15.3

Lab note: measured diameter of the inhibition zone (DIZ) of C=CCCCCCCCCC(=O)N(C(=O)NC1CCCCC1)C1CCCCC1 was 12.1

Query compound follows.
get_value(item= CCCCCCCCCCCCCCCC(=O)Nc1ccccc1O , readout=diameter of the inhibition zone (DIZ)) returns 13.7

----------
test system: Trichophyton mentagrophytes; test: Antifungal activity against Trichophyton mentagrophytes after 3 to 4 days by disc diffusion method; type: functional; note: test concentration or dose not given here
Consider the following molecules; for each one, report its diameter of the inhibition zone (DIZ).
One number for each entry, in mm.

Before answering, review these 4 worked examples.
So, CCCCC/C=C\CC[C@H](O)CCCCCCCC(=O)N(C(=O)NC1CCCCC1)C1CCCCC1 ? Its diameter of the inhibition zone (DIZ) was 18.3

// CCCCCCCCCCCCCCCC(=O)N(C(=O)NC1CCCCC1)C1CCCCC1 : diameter of the inhibition zone (DIZ) value = 10.7

Form field diameter of the inhibition zone (DIZ), entry CCCCC/C=C\CC[C@H](O)CCCCCCCC(=O)Nc1ccccc1O : 15.2

Record COC1=CC(=O)C[C@@H](C)[C@]12Oc1c(Cl)c(OC)cc(OC)c1C2=O . Reported diameter of the inhibition zone (DIZ): 24

# ---- query molecule ----
get_value(item= CCCCCC[C@@H](O)C/C=C\CCCCCCCC(=O)N(C(=O)NC1CCCCC1)C1CCCCC1 , readout=diameter of the inhibition zone (DIZ)) returns 13.1
